Molecular target: HDM2 (Homo sapiens, UniProt Q00987)
Construct: Thioredoxin (N); made in house; host or cells: E. coli strain BL21(DE3)Rosetta
Sequence (Q00987 17-125): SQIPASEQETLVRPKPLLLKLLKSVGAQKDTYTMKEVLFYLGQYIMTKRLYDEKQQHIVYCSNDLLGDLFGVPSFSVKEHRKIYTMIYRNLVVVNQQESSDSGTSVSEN
Experiment: HDM2 FRET assay (inhibition of binding of FITC labeled p53-pocket peptide to HDM2)
Settings: Table 11; read-out: FRET IC50
Please respond with reported IC50 for every item in the list.
Give bare numbers, in nM.

Solved entries:
INSERT INTO assay_data (compound, target_desc, measure, units_label, quantitative_readout) VALUES
  ('C[C@@H](Nc1nc(C(=O)O)nc2nc(N3CCCCC3c3ccc(F)cc3)n(C[C@H]3CC[C@H](C)CC3)c12)C1CCC1 (stereo partly drawn) [Example 11.18]', 'HDM2 (Homo sapiens, UniProt Q00987)', 'IC50', 'nM', 4.42),
  ('CC(C)CN(C)c1nc2nc(-c3noc(=O)[nH]3)nc(N[C@H](C)C3CCC3)c2n1C[C@H]1CC[C@H](C)CC1 [Example 11.48]', 'HDM2 (Homo sapiens, UniProt Q00987)', 'IC50', 'nM', 6.71);

Pending compound:
[Q] Please indicate IC50 recorded for C[C@@H](Nc1nc(C(=O)O)nc2nc(N3CCCC3c3cccc(F)c3)n(C[C@H]3CC[C@H](C)CC3)c12)C1CCC1 (stereo partly drawn) [Example 11.28]
[A] 1.52

Taken from patent EP2951180B1.
